# growth annotations
Test system: E. coli TESEC Mtb Asd
testDetails: growth (OD600 after 10 h); higher = more growth (less inhibition)
measurementSetup: arabinose induction (level): High; compound 0.1 mM; raw OD600 reference: median of DMSO wells 0.331, cell-free background 0.041
Structures can show the parent of a compound that is named as a salt.
Response field accepts a number only; no unit should be typed.

compound | testResult
COc1ccc(C[C@@H]2c3cc(OC)c(OC)cc3CC[N@+]2(C)CCC(=O)OCCCCCOC(=O)CC[N@@+]2(C)CCc3cc(OC)c(OC)cc3[C@H]2Cc2ccc(OC)c(OC)c2)cc1OC [Cisatracurium besylate] | 0.307
O=C1C(CC[S+]([O-])c2ccccc2)C(=O)N(c2ccccc2)N1c1ccccc1 (centres undefined) [Sulfinpyrazone] | 0.26
CCCCC(CC)CNC(=N)NC(=N)NCCCCCCNC(=N)NC(=N)NCC(CC)CCCC (centres undefined) [Alexidine dihydrochloride] | 0.0536

Next up:
(Q) Missing value: growth, E. coli TESEC Mtb Asd, entry CCOC(=O)[C@H](CCc1ccccc1)N[C@@H](C)C(=O)N1Cc2ccccc2C[C@H]1C(=O)O [Quinapril HCl] . Fill in?
(A) 0.246
